# Organism: Rattus norvegicus
# TEST_SUMMARY: Ability to displace 7.0 nM [3H]-PCP binding to rat brain homogenate relative to PCP
Label yes when Relative potency is strictly below 0.08; otherwise label no.

# STRUCTURE_AS_SMILES, CLASS_NAME
rows = [
    ("c1ccc(CN2CCCCC2)cc1", "yes"),
]

Does `Cl.c1ccc(C2(N3CCCCC3)CCCC2)cc1` have Relative potency strictly under 0.08?
no

Is 0.08 strictly greater than the compound's reported Relative potency? compound: `Cl.c1ccc(C2(N3CCCCC3)CCCCCC2)cc1`
no

# strict comparison: is reported Relative potency < 0.08? input = `c1ccc(C2(N3CCCCC3)CC2)cc1`
yes

Record `c1ccc(C2(N3CCCCC3)CCCCCCC2)cc1` : is its Relative potency strictly below 0.08?
no

Each recorded value in this set is attributed to ChEMBL document CHEMBL1121756.
